molecular target: heteromeric KV7.2/KV7.3 channels (KCNQ2, KCNQ3) (Homo sapiens, UniProt O43525+O43526); experiment: Automated patch-clamp (Sophion Qube 384) potency assay against KV7.2/KV7.3 channels; conditions: CHO-K1/Kv7.2/Kv7.3 cells; EC50 from concentration-response of shift in Vhalf, 10 concentrations up to 30 μM; read-out: Kv7.2/7.3 EC50
In this section we review reported pEC50 values for a set of compounds.
Recall that pEC50 is obtained by taking minus log10 of the concentration measured in molar.

O=C(NCc1ccnc(OCC(F)(F)F)c1)Nc1cc(F)cc(Cl)c1 [Compound 77] | 6.26
CC1Cc2cccc(NC(=O)NCc3ccnc(OCC(F)(F)F)c3)c2O1 (centres unmarked) [Compound 136] | 6.25
O=C(NCc1ccnc(OCC(F)(F)F)c1)NC1CCc2ccccc21 (centres unmarked) [Compound 137] | 6.07
O=C(NCc1ccnc(OCC(F)(F)F)c1)N[C@@H]1CCO[C@@H](c2ccccc2)C1 [Compound 195] | 5.18

// next entry
## Input # pEC50 lookup, item CC(C)(CCNC(=O)NCc1ccnc(OCC(F)(F)F)c1)C(F)(F)F [Compound 41]
## Output 6.37

Source listed as patent US20260207563A1.
